We begin with a simple list: items and their reported Wirksamkeit in % Substanz allein.
- Tested on: Kornkäfer (sitophilus granarius L)
- ASSAY_PROTOCOL: whole plant or invertebrate
- Assay type: in vivo
- EXPERIMENTAL_PARAMETERS: amine 1 mg/ml in Aceton mixed 1 : 1 with Aceton, 2 ml per dish; 25 weevils, dead counted after 3 h

Examples with answers:
[[record]]
molecule = "CCCCCC(C=O)CN1CCCCC1 (stereo not drawn) [N-Piperidino-methyl-heptanal]"
observed_result = "0%"

[[record]]
molecule = "c1ccc(OCCCN2CCCCC2)cc1 [N-(1-Phenoxi-propyl-(3))-piperidin]"
observed_result = "0%"

[[record]]
molecule = "OCCC(O)N1CCCC1 (stereo not drawn) [1-N-Pyrrolidino-propandiol-(1,3)]"
observed_result = "0%"

[[record]]
molecule = "CCOC(=O)CCN1CCOCC1 [N-Morpholino-propionsäure-ethylester]"
observed_result = "0%"

[[record]]
molecule = "OC(CCl)CN1CCCCC1 (stereo not drawn) [1-N-Piperidino-2-hydroxi-3-chlor-propan]"
observed_result = "0%"


Now, please, on to the next molecule.
What Wirksamkeit in % Substanz allein value was documented for this molecule, C(CCCCN1CCOCC1)CCCN1CCOCC1 [1,8-N,N-Dimorpholino-octan] ?
44,0%

* * *

We begin with a simple list: items and their reported Synergistischer Faktor bei Talcord.
- Tested on: Kornkäfer (sitophilus granarius L)
- ASSAY_PROTOCOL: whole plant or invertebrate
- Format: in vivo
- EXPERIMENTAL_PARAMETERS: amine 1 mg/ml + Talcord 0,01 mg/ml

Examples with answers:
[[record]]
molecule = "c1cc2c(cc1CN1CCOCC1)OCO2"
target_of_assay = "Kornkäfer (sitophilus granarius L)"
quantity_kind = "Synergistischer Faktor bei Talcord"
observed_result = "3,84"

[[record]]
molecule = "C#CCN1CCCC1"
target_of_assay = "Kornkäfer (sitophilus granarius L)"
quantity_kind = "Synergistischer Faktor bei Talcord"
observed_result = "1,52"

[[record]]
molecule = "CCOC(=O)CCN1CCOCC1"
target_of_assay = "Kornkäfer (sitophilus granarius L)"
quantity_kind = "Synergistischer Faktor bei Talcord"
observed_result = "2,76"

[[record]]
molecule = "C#CCN1CCCCC1CC (centres unmarked)"
target_of_assay = "Kornkäfer (sitophilus granarius L)"
quantity_kind = "Synergistischer Faktor bei Talcord"
observed_result = "3,84"


Now, please, on to the next molecule.
What Synergistischer Faktor bei Talcord value was documented for this molecule, C1CCCC(N2CCOCC2)CC1 ?
3,59

* * *

We begin with a simple list: items and their reported Wirksamkeit in % Substanz +Talcord.
- System: Kornkäfer (sitophilus granarius L)
- ASSAY_PROTOCOL: whole plant or invertebrate
- Assay type: in vivo
- EXPERIMENTAL_PARAMETERS: amine 1 mg/ml mixed 1 : 1 with Talcord 0,01 mg/ml; 3 h

What Wirksamkeit in % Substanz +Talcord value was documented for this compound, CCOC(=O)C(c1ccccc1)N1CCCC1 (stereo not shown) ?
25,2%

What Wirksamkeit in % Substanz +Talcord value was documented for this compound, c1ccc(OCCN2CCCCCC2)cc1 ?
49,4%

What Wirksamkeit in % Substanz +Talcord value was documented for this compound, CCCCCC(C=O)CN1CCCCC1 (stereo not shown) ?
60,0%

What Wirksamkeit in % Substanz +Talcord value was documented for this compound, C(=Cc1ccccc1)CN1CCCCC1 ?
68,0%

What Wirksamkeit in % Substanz +Talcord value was documented for this compound, c1cc2c(cc1CN1CCCCCC1)OCO2 ?
68,0%

What Wirksamkeit in % Substanz +Talcord value was documented for this compound, CCCCC(CC)CN1CCCC1 (stereo not shown) ?
41,2%

What Wirksamkeit in % Substanz +Talcord value was documented for this compound, CCCCCCCCCCN1CCOCC1 ?
81,2%

What Wirksamkeit in % Substanz +Talcord value was documented for this compound, C(=Cc1ccccc1)CN1CCCC1 ?
30,8%

What Wirksamkeit in % Substanz +Talcord value was documented for this compound, C#CCN1CCCC1 ?
14,8%

What Wirksamkeit in % Substanz +Talcord value was documented for this compound, c1ccc(CN2CCOCC2)cc1 ?
21,2%

* * *

- System: Drosophila melanogaster
- ASSAY_PROTOCOL: whole plant or invertebrate
- Type: in vivo
- EXPERIMENTAL_PARAMETERS: 1 ml 0,05%ige amine solution + 1 ml Aceton per dish; 20 flies, dead counted every 5 min, 12 times; mean values
QUANTITY_KIND: Wirksamkeit in % Substanz allein (%)
Numeric only. Scale: %

Examples with answers:
[[record]]
molecule = "C(=CC1CCCCC1)CN1CCCC1"
observed_result = 0

[[record]]
molecule = "CCCCOCCOCCOCCN1CCCC1"
observed_result = 0

[[record]]
molecule = "C=CC(C)(CCC=C(C)C)N1CC1 (centres unmarked)"
observed_result = 0


Now, please, on to the next molecule.
What Wirksamkeit in % Substanz allein value was documented for this molecule, c1ccc(OCCCN2CCCCC2)cc1 ?
0

* * *

- Tested on: Kornkäfer (sitophilus granarius L)
- ASSAY_PROTOCOL: whole plant or invertebrate
- Format: in vivo
- EXPERIMENTAL_PARAMETERS: amine 1 mg/ml mixed 1 : 1 with Ripcord 0,01 mg/ml; 3 h
QUANTITY_KIND: Wirksamkeit in % Substanz +Ripcord

[[record]]
molecule = "CCCCOCCOCCOCCN1CCCC1"
target_of_assay = "Kornkäfer (sitophilus granarius L)"
quantity_kind = "Wirksamkeit in % Substanz +Ripcord"
observed_result = "96,0%"

[[record]]
molecule = "CCOC(=O)C(CC)N1CCOCC1 (centres unmarked)"
target_of_assay = "Kornkäfer (sitophilus granarius L)"
quantity_kind = "Wirksamkeit in % Substanz +Ripcord"
observed_result = "49,2%"

[[record]]
molecule = "CCCCCCCCCCCCN1CCCCC1"
target_of_assay = "Kornkäfer (sitophilus granarius L)"
quantity_kind = "Wirksamkeit in % Substanz +Ripcord"
observed_result = "94,6%"

[[record]]
molecule = "Clc1ccc(CN2CCCC2)cc1"
target_of_assay = "Kornkäfer (sitophilus granarius L)"
quantity_kind = "Wirksamkeit in % Substanz +Ripcord"
observed_result = "100,0%"

[[record]]
molecule = "CCCCCN1CCCCC1"
target_of_assay = "Kornkäfer (sitophilus granarius L)"
quantity_kind = "Wirksamkeit in % Substanz +Ripcord"
observed_result = "61,2%"


What Wirksamkeit in % Substanz +Ripcord value was documented for this molecule, C(CCCN1CCCC1)CCN1CCCC1 ?
77,2%

What Wirksamkeit in % Substanz +Ripcord value was documented for this molecule, CCCCCCCCCCCCCCN1CCCC1 ?
50,0%

What Wirksamkeit in % Substanz +Ripcord value was documented for this molecule, N#CCN1CCCCCC1 ?
53,2%

* * *

- Test system: Drosophila melanogaster
- ASSAY_PROTOCOL: whole plant or invertebrate
- Format: in vivo
- EXPERIMENTAL_PARAMETERS: 1 ml 0,05%ige amine solution + 1 ml 0,0001%ige Dimetilan solution
QUANTITY_KIND: Wirksamkeit in % Substanz +Dimeti-lan

Examples with answers:
[[record]]
compound = "CCCCCC(CCCCC)N1CCCC1"
quantity_kind = "Wirksamkeit in % Substanz +Dimeti-lan"
observed_result = "75,8%"

[[record]]
compound = "CCOC(=O)CC(C(=O)OCC)N1CCCCC1 (centres unmarked)"
quantity_kind = "Wirksamkeit in % Substanz +Dimeti-lan"
observed_result = "2,3%"

[[record]]
compound = "c1ccc(OCCCN2CCCCC2)cc1"
quantity_kind = "Wirksamkeit in % Substanz +Dimeti-lan"
observed_result = "12,1%"

[[record]]
compound = "CCCCCCCCCCN1CCCCC1C (centres unmarked)"
quantity_kind = "Wirksamkeit in % Substanz +Dimeti-lan"
observed_result = "77,9%"


What Wirksamkeit in % Substanz +Dimeti-lan value was documented for this compound, C(=Cc1ccccc1)CN1CCCC1 ?
55,4%

* * *

We begin with a simple list: items and their reported Wirksamkeit in % Substanz +Dimeti-lan.
- Tested on: Drosophila melanogaster
- ASSAY_PROTOCOL: whole plant or invertebrate
- Format: in vivo
- EXPERIMENTAL_PARAMETERS: 1 ml 0,05%ige amine solution + 1 ml 0,0001%ige Dimetilan solution

Examples with answers:
[[record]]
compound = "CCOC(=O)C(c1ccccc1)N1CCCCC1 (stereo not drawn)"
quantity_kind = "Wirksamkeit in % Substanz +Dimeti-lan"
observed_result = "2,7%"

[[record]]
compound = "CCCCOCCOCCOCCN1CCCC1"
quantity_kind = "Wirksamkeit in % Substanz +Dimeti-lan"
observed_result = "1,7%"

[[record]]
compound = "C(=Cc1ccccc1)CN1CCCCC1"
quantity_kind = "Wirksamkeit in % Substanz +Dimeti-lan"
observed_result = "82,5%"

[[record]]
compound = "C=CC(C)(CCC=C(C)C)N1CCOCC1 (stereo not drawn)"
quantity_kind = "Wirksamkeit in % Substanz +Dimeti-lan"
observed_result = "20,0%"

[[record]]
compound = "c1cc2c(cc1CN1CCCC1)OCO2"
quantity_kind = "Wirksamkeit in % Substanz +Dimeti-lan"
observed_result = "58,3%"


What Wirksamkeit in % Substanz +Dimeti-lan value was documented for this compound, C=CC(C)(CCC=C(C)C)N1CC1 (stereo not drawn) ?
0,42%

What Wirksamkeit in % Substanz +Dimeti-lan value was documented for this compound, CCCCCCCCCCN1CCCC1 ?
4,8%

What Wirksamkeit in % Substanz +Dimeti-lan value was documented for this compound, C(CCCCN1CCOCC1)CCCN1CCOCC1 ?
10,4%

What Wirksamkeit in % Substanz +Dimeti-lan value was documented for this compound, c1cc2c(cc1CN1CCCCC1)OCO2 ?
52,1%

What Wirksamkeit in % Substanz +Dimeti-lan value was documented for this compound, CCCCCCCCCN1CCCCC1CC (stereo not drawn) ?
7,9%
